tgt: rat histamine H3 receptor (Rattus norvegicus, UniProt Q9QYN8)
Construct: encoding the entire 445-amino-acid rat histamine H3 receptor; expressed in transfected cells
Sequence (Q9QYN8 whole entry): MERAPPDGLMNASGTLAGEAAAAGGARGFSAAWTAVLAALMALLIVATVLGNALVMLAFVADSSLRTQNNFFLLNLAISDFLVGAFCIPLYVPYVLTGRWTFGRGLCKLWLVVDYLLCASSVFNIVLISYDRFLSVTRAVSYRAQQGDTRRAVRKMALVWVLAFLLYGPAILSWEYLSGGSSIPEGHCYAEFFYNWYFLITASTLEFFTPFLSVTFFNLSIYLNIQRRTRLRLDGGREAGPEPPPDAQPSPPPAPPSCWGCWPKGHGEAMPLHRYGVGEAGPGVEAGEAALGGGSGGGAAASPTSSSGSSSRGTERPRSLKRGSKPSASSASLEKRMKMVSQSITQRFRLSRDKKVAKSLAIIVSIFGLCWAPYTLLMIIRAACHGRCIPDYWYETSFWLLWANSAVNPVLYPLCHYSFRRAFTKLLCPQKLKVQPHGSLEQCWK
assay: Rat H3 radioligand binding ([3H]-N-alpha-methylhistamine, SPA)
test-settings: membranes of CHO-A3 cells expressing rat H3; [3H]-N-alpha-methylhistamine; read-out: Rat H3 Ki
Protocol: The rat H3 receptor cDNA was PCR amplified from reverse-transcribed RNA pooled from rat thalamus, hypothalamus, striatum and prefrontal cortex with a sequence corresponding to by #338-1672 of Genbank file #NM_053506, encoding the entire 445-amino-acid rat histamine H3 receptor. […] Membranes were resuspended in 50 mM Tris HCl (pH 7.4), 5 mM MgCl2, 0.1% BSA. […] Non-specific binding was determined in the presence of 10 μM clobenpropit. […]
pKi: −log10 of the molar value.
attribute-measured: pKi

Given the compound `C[C@@H]1CCCN1CCCOc1ccc(C(=O)CN2CCN(C(=O)c3ccc4ccccc4c3)CC2)cc1` , write its reported pKi.
7.00 to 10.00

Respond only with pKi recorded for `C[C@@H]1CCCN1CCCOc1ccc(C(=O)CN2CCO[C@@H](c3ccccc3)C2)cc1`
7.00 to 10.00

Answer with reported pKi of `C[C@@H]1CCCN1CCCOc1ccc(C(=O)CN2CCN(C(=O)c3ccccc3)CC2)cc1F`
7.00 to 10.00

Tell us which pKi value is on record for `C[C@@H]1CCCN1CCCOc1c(Cl)cc(C(=O)CN2CCC(F)(F)CC2)cc1Cl`
< 6.00

Determine its reported pKi: `C[C@@H]1CCCN1CCCOc1ccc(C(=O)CN2CCN(c3ccc(F)cc3)CC2)cc1`
7.00 to 10.00

All figures here come from patent US20140296212A1.
